Target: T1, mTfR-1 G330A on Expi293 cells (mouse, UniProt Q62351 1-763)
T1 construct: whole, on cells
T1 sequence (Q62351 whole entry G330A): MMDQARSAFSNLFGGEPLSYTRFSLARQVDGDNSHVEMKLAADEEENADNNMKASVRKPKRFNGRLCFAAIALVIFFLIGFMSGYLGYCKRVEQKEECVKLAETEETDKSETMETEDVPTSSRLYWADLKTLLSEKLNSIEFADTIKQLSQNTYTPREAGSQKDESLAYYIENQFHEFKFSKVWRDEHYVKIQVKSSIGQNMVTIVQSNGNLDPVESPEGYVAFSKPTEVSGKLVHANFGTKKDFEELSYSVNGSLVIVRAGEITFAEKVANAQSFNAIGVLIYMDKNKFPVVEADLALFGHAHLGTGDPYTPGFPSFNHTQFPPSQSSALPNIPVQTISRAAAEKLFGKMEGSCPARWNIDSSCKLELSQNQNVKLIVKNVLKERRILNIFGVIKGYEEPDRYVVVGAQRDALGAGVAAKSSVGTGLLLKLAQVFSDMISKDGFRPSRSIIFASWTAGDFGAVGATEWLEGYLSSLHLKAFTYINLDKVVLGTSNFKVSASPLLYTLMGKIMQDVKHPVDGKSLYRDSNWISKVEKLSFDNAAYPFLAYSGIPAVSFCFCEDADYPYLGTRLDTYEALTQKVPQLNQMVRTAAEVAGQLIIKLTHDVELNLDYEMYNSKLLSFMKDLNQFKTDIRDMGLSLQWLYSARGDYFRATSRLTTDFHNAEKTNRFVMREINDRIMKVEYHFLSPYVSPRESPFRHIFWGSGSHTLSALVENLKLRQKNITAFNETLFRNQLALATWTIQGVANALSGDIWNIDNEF
Test Protocol: FACS, transfected Expi293 cells
Measured Attribute: % double-positive cells vs WT (%)

[[record]]
binder = "Clone C variant 13 VNAR-hFc (Fc fusion, not shown: a dimerising Fc or GST, also called Clone C v13; Clone C var; 13) ARVDQTPQTITKETGESLTINCVLRDSNCALSSTYWYRKKSGSTNEENISKGGRYVETVNSGSKSFSLRINDLTVEDSGTYRCNVVQYPQQDNYFWCDVYGDGTAVTVN"
measured_attribute = "% double-positive cells vs WT"
result_number = 87

[[record]]
binder = "Clone C VNAR-hFc fusion (Fc fusion, not shown: a dimerising Fc or GST, bivalent VNAR-Fc; also called Clone C-hFc) ARVDQTPQTITKETGESLTINCVLRDSNCALSSTYWYRKKSGSTNEENISKGGRYVETVNSGSKSFSLRINDLTVEDSGTYRCNVVQYPSYNNYFWCDVYGDGTAVTVN"
measured_attribute = "% double-positive cells vs WT"
result_number = 307

[[record]]
binder = "Clone C variant 18 VNAR-hFc (Fc fusion, not shown: a dimerising Fc or GST, also called Clone C v18; Clone C var; 18) ARVDQTPQTITKETGESLTINCVLRDSNCALSSTYWYRKKSGSTNEENISKGGRYVETVNSGSKSFSLRINDLTVEDSGTYRCNVVQYPQYPNYFWCDVYGDGTAVTVN"
measured_attribute = "% double-positive cells vs WT"
result_number = 231

[[record]]
binder = "8D3 antibody (anti-mouse TfR-1 control; 8D3-hFc formatted antibody) (antibody, V domains shown) VH: EVQLVESGGGLVQPGNSLTLSCVASGFTFSNYGMHWIRQAPKKGLEWIAMIYYDSSKMNYADTVKGRFTISRDNSKNTLYLEMNSLRSEDTAMYYCAVPTSHYVVDVWGQGVSVTVSS VL: DIQMTQSPASLSASLEEIVTITCQASQDIGNWLAWYQQKPGKSPQLLIYGATSLADGVPSRFSGSRSGTQFSLKISRVQVEDIGIYYCLQAYNTPWTFGGGTKLELK"
measured_attribute = "% double-positive cells vs WT"
result_number = 90

